target_or_system: cathepsin B (Homo sapiens, UniProt P07858)
Construct: purchased Calbiochem 219364
method_description: Inhibition of cathepsin B
Type: biochemical
applied_conditions: Table III; read-out: Cat B IC50
Square brackets hold non-standard residues; d marks the D form. Peptide text beside a SMILES is read from it. * marks the point of attachment. d2Thi = N[C@H](Cc1cccs1)C(=O)O; dPhg = N[C@@H](C(=O)O)c1ccccc1; Bn = c1ccc(C*)cc1; Ms = CS(=O)(=O)*
measured_metric: IC50 (µM)
Entry rule: numbers only, all in µM.

CS(=O)(=O)N[C@H](Cc1cccs1)C(=O)N[C@H](C=O)Cc1ccccc1 [Compound 100] (Ms-[d2Thi]-Phe-aldehyde); 0.031
CN(Cc1ccccc1)C(=O)C[C@@H](NS(C)(=O)=O)C(=O)N[C@H](C=O)Cc1ccccc1 [Compound 78]; 0.006
O=C[C@H](Cc1ccccc1)NC(=O)[C@@H](COCc1ccccc1)NS(=O)(=O)c1ccc2ccccc2c1 [Compound 52]; 0.004
CC(=O)Nc1ccc(S(=O)(=O)N[C@H](COCc2ccccc2)C(=O)N[C@H](C=O)Cc2ccccc2)cc1 [Compound 51]; 0.014
CS(=O)(=O)N[C@@H](C(=O)N[C@H](C=O)Cc1ccccc1)c1ccccc1 [Compound 76] (Ms-[dPhg]-Phe-aldehyde); 0.25
O=C[C@H](Cc1ccccc1)NC(=O)[C@@H](COCc1ccccc1)NS(=O)(=O)c1ccccc1 [Compound 48]; 0.011
CS(=O)(=O)N[C@H](CS(=O)(=O)Cc1ccccc1)C(=O)N[C@H](C=O)Cc1ccccc1 [Compound 80]; 0.046
O=C[C@H](Cc1ccccc1)NC(=O)[C@@H](Cc1ccccc1)NS(=O)(=O)c1ccccc1 [Compound 59]; 0.005
CS(=O)(=O)N[C@@H](C(=O)N[C@H](C=O)Cc1ccccc1)c1cccs1 [Compound 98]; 0.016

--- query ---
INPUT: Report IC50, nothing else, for this molecule: C[C@H](OCc1ccccc1)[C@@H](NS(C)(=O)=O)C(=O)N[C@H](C=O)Cc1ccccc1 [Compound 43] (Ms-[dT](Bn)-Phe-aldehyde)
OUTPUT: 0.058

###

target_or_system: α-chymotrypsin (Bos taurus)
Construct: purchased Sigma Chem. Co. C-3142
method_description: Inhibition of α-chymotrypsin
Format: biochemical
applied_conditions: Table III; 10 uM; read-out: Chymotrypsin % I @ 10 uM
Square brackets hold non-standard residues; d marks the D form. Peptide text beside a SMILES is read from it. * marks the point of attachment. Tos = Cc1ccc(S(=O)(=O)*)cc1
measured_metric: inhibition at 10 µM (%)
A number alone suffices; assume %.

Here are 3 compounds together with their reported answers.
CON=C[C@H](Cc1ccccc1)NC(=O)[C@@H](COCc1ccccc1)NS(C)(=O)=O [Compound 119]; 3
Cc1ccc(S(=O)(=O)N[C@H](Cc2ccccc2)C(=O)N[C@H](C=O)Cc2ccccc2)cc1 [Compound 61] (Tos-[dF]-Phe-aldehyde); 0
CS(=O)(=O)N[C@H](COCc1ccccc1)C(=O)N[C@H](C=O)CCCCNS(=O)(=O)c1ccccc1 [Compound 122]; 13

INPUT: Report the value of inhibition at 10 µM obtained on α-chymotrypsin (Bos taurus) for CS(=O)(=O)N[C@H](COCc1ccccc1)C(=O)N[C@H]1CCCCNC1=O [Compound 126] .
OUTPUT: 6

INPUT: Provide inhibition at 10 µM, tested on α-chymotrypsin (Bos taurus), for O=C[C@H](Cc1ccccc1)NC(=O)[C@@H](COCc1ccccc1)N1C(=O)c2ccccc2C1=O [Compound 94] .
OUTPUT: 1

INPUT: Answer briefly: inhibition at 10 µM recorded on α-chymotrypsin (Bos taurus) for O=C[C@H](Cc1ccccc1)NC(=O)[C@@H](Cc1c[nH]c2ccccc12)NS(=O)(=O)c1cccs1 [Compound 73]
OUTPUT: 16

###

# key: entry, value: inhibition at 1 µM
target_or_system: cathepsin B (Homo sapiens)
Construct: purchased Calbiochem 219364
method_description: Inhibition of cathepsin B
Type: biochemical
applied_conditions: Table III; 1 uM; read-out: Cat B % I @ 1 uM
Square brackets hold non-standard residues; d marks the D form. Peptide text beside a SMILES is read from it. * marks the point of attachment. d2Thi = N[C@H](Cc1cccs1)C(=O)O; Bn = c1ccc(C*)cc1; Ms = CS(=O)(=O)*
Kindly answer with a numeric value in %, unit omitted.

Consider the worked cases shown below.
O=C[C@H](Cc1ccccc1)NC(=O)[C@@H](Cc1ccccc1)NS(=O)(=O)c1ccccc1 [Compound 59]; 100
CS(=O)(=O)N[C@H](Cc1cccs1)C(=O)N[C@H](C=O)Cc1ccccc1 [Compound 100] (Ms-[d2Thi]-Phe-aldehyde); 97
CS(=O)(=O)N[C@H](CSCc1ccccc1)C(=O)N[C@H](C=O)Cc1ccccc1 [Compound 106] (Ms-[dC](Bn)-Phe-aldehyde); 92

Next, consider the following molecule.
INPUT: Please supply the value of reported inhibition at 1 µM for the item CCS(=O)(=O)N[C@H](Cc1ccccc1)C(=O)N[C@H](C=O)Cc1ccccc1 [Compound 60]
OUTPUT: 97

###

target_or_system: cathepsin L (Homo sapiens, UniProt P07711)
Construct: purchased Calbiochem 219402
Sequence (P07711 114-288 limits assumed): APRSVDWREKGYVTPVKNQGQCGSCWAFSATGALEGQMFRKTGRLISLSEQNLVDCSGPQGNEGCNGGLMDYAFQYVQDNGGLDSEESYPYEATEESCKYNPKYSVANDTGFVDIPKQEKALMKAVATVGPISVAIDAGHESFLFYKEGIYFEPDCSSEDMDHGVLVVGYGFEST
Sequence (P07711 292-333 limits assumed): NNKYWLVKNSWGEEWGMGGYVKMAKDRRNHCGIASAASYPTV
method_description: Inhibition of cathepsin L
Format: biochemical
applied_conditions: Table III; 1 uM; read-out: Cat L % I @ 1 uM
Square brackets hold non-standard residues; d marks the D form. Peptide text beside a SMILES is read from it. * marks the point of attachment. ξ: configuration not given here. ξαMeL = CC(C)CC(C)(N)C(=O)O; Bn = c1ccc(C*)cc1; Ms = CS(=O)(=O)*
Listing: inhibition at 1 µM of selected compounds
I'd appreciate it if you wrote the number followed by its unit.

INPUT: Kindly indicate its recorded inhibition at 1 µM. Item: CC(C)CC(C)(C=O)NC(=O)[C@@H](COCc1ccccc1)NS(C)(=O)=O (some centres unmarked) [Compound 110] (Ms-[dS](Bn)-[ξαMeL]-aldehyde)
OUTPUT: 83%

INPUT: Quickly give me recorded inhibition at 1 µM for CN1CCN(C)C1[C@H](Cc1ccccc1)NC(=O)[C@@H](COCc1ccccc1)NS(C)(=O)=O
OUTPUT: 100%

INPUT: Report inhibition at 1 µM for Cn1cnc(S(=O)(=O)N[C@H](COCc2ccccc2)C(=O)N[C@H](C=O)Cc2ccccc2)c1
OUTPUT: 100%

INPUT: Using the record for CC(C)C[C@@H](C=O)NC(=O)[C@@H](COCc1ccccc1)NS(C)(=O)=O [Compound 88] (Ms-[dS](Bn)-Leu-aldehyde) , state its measured inhibition at 1 µM.
OUTPUT: 91%

INPUT: Return inhibition at 1 µM for the following compound: O=C[C@H](Cc1ccccc1)NC(=O)[C@@H](Cc1ccccc1)NS(=O)(=O)c1ccccc1
OUTPUT: 100%

INPUT: Respond only with inhibition at 1 µM recorded for CCS(=O)(=O)N[C@H](Cc1ccccc1)C(=O)N[C@H](C=O)Cc1ccccc1
OUTPUT: 100%

###

target_or_system: Recombinant human calpain I (Homo sapiens, UniProt P07384)
Construct: made in house
Sequence (P07384 whole entry): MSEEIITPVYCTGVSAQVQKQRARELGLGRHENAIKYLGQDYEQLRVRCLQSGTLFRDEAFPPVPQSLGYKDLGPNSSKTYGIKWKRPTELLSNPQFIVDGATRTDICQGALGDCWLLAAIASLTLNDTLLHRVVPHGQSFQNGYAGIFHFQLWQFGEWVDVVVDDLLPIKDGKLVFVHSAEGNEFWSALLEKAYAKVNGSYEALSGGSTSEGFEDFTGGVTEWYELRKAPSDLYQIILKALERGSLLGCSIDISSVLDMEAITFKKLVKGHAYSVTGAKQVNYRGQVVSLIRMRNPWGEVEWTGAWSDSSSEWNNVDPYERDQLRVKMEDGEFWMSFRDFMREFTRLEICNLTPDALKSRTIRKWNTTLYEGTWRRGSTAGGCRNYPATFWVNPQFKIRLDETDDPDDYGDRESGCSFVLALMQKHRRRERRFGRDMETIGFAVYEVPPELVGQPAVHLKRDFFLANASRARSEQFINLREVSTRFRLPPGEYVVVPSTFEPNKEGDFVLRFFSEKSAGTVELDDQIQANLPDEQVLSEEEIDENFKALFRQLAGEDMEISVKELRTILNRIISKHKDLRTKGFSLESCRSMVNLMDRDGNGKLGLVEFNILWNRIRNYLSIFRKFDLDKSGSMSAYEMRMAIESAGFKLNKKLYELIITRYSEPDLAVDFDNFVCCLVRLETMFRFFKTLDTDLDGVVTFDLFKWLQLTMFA
method_description: Inhibition of calpain I activity
Type: biochemical
applied_conditions: Table III
Square brackets hold non-standard residues; d marks the D form. Peptide text beside a SMILES is read from it. * marks the point of attachment. Bn = c1ccc(C*)cc1; Ms = CS(=O)(=O)*
// returns n unless IC50 is strictly below 10 nM, in which case y

Here are 6 compounds together with their reported answers.
CC(=O)N[C@H](COCc1ccccc1)C(=O)N[C@H](C=O)Cc1ccccc1; n
CN([C@H](COCc1ccccc1)C(=O)N[C@H](C=O)Cc1ccccc1)S(C)(=O)=O; n
CCS(=O)(=O)N[C@H](COCc1ccccc1)C(=O)N[C@H](C=O)Cc1ccccc1; n
CS(=O)(=O)N[C@H](COCc1ccccc1)C(=O)N[C@H](C=O)Cc1ccc(OCc2ccccc2)cc1 [Compound 90] (Ms-[dS](Bn)-Tyr(Bn)-aldehyde); y
CCNC(=O)C(=O)[C@H](Cc1ccccc1)NC(=O)[C@@H](COCc1ccccc1)NS(C)(=O)=O; n
O=C[C@H](Cc1ccccc1)NC(=O)[C@@H](COCc1ccccc1)NS(=O)(=O)c1ccc2ccccc2c1; n

We next turn to a different compound, shown below.
INPUT: Confirm or reject: IC50 of CS(=O)(=O)N[C@H](CSCc1ccccc1)C(=O)N[C@H](C=O)Cc1ccccc1 [Compound 106] (Ms-[dC](Bn)-Phe-aldehyde) lies strictly below 10 nM
OUTPUT: y

###

target_or_system: cathepsin B (Homo sapiens)
Construct: purchased Calbiochem 219364
method_description: Inhibition of cathepsin B
Format: biochemical
applied_conditions: Table II; read-out: Cat B IC50
Square brackets hold non-standard residues; d marks the D form. Peptide text beside a SMILES is read from it. * marks the point of attachment. Bn = c1ccc(C*)cc1
measured_metric: IC50 (nM)
Give just the numeric value; nM need not be written.

# annotated cases, reported IC50 shown
CS(=O)(=O)N[C@H](COCc1ccccc1)C(=O)N[C@H](C=O)Cc1ccccc1 [Compound 40, BnO--CH2 CH(NHS(=O)2 CH3)C(=O)-Phe--H]; 42
CS(=O)(=O)N[C@H](CC(=O)N1CCc2ccccc2C1)C(=O)N[C@H](C=O)Cc1ccccc1 [Compound 14]; 145
CC(=O)N[C@H](CSCc1ccccc1)C(=O)N[C@H](C=O)Cc1ccccc1 [Compound 25, BnS--CH2 CH(NHC(=O)CH3)C(=O)-Phe--H] (Ac-[dC](Bn)-Phe-aldehyde); 5000

Please find the next compound below.
INPUT: Provide only the value of recorded IC50 for CC(=O)N[C@H](CC(=O)N1CCc2ccccc2C1)C(=O)N[C@H](C=O)Cc1ccccc1 [Compound 9]
OUTPUT: 11000
